Listed below: Ratio values for each entry.
# Test system: Calf thymus DNA
# ASSAY: Ratio of compound concentration to polynucleotide phosphate concentration for binding affinity to calf thymus DNA
# Format: nucleic-acid assay
# MEASUREMENT_CONDITIONS: Bos taurus
Keep it simple and answer with nothing but the number.

In the examples that follow, each entry is paired with its recorded Ratio.
SMILES_STR: Clc1ccc2[nH]c(-c3ccc(Cn4cc(COc5ccc(-c6ccc(OCc7cn(Cc8ccc(-c9nc%10cc(Cl)ccc%10[nH]9)o8)nn7)cc6)cc5)nn4)o3)nc2c1
Ratio: 0.3
--
SMILES_STR: c1ccc2[nH]c(-c3ccc(Cn4cc(COc5ccc(-c6ccc(OCc7cn(Cc8ccc(-c9nc%10ccccc%10[nH]9)o8)nn7)cc6)cc5)nn4)o3)nc2c1
Ratio: 0.3
--
SMILES_STR: Fc1ccc2[nH]c(-c3ccc(Cn4cc(COc5ccc(OCc6cn(Cc7ccc(-c8nc9cc(F)ccc9[nH]8)o7)nn6)cc5)nn4)o3)nc2c1
Ratio: 0.17

Next compound, please.
Given item Cl.Cl.c1cc2[nH]c(-c3ccc(Cn4cc(COCc5cn(Cc6ccc(-c7nc8cc(C9=NCCN9)ccc8[nH]7)o6)nn5)nn4)o3)nc2cc1C1=NCCN1 , the value recorded as its Ratio is 0.89

---

# Tested on: Calf thymus DNA
# ASSAY: Binding affinity to calf thymus DNA assessed as hypochromic effect by UV-vis spectrophotometric method relative to control
# Assay type: nucleic-acid assay
# Parameters: concentration or dose not given beside the values
# MEASUREMENT_CONDITIONS: Bos taurus
Consider the reported Activity of an entry and match it to a band in A: < 20%; B: ≥ 20% and < 30%; C: ≥ 30%

SMILES_STR: Clc1ccc2[nH]c(-c3ccc(Cn4cc(COCc5cn(Cc6ccc(-c7nc8cc(Cl)ccc8[nH]7)o6)nn5)nn4)o3)nc2c1
ASSIGNED_LABEL: C
--
SMILES_STR: Clc1ccc2[nH]c(-c3ccc(Cn4cc(COc5ccc(-c6ccc(OCc7cn(Cc8ccc(-c9nc%10cc(Cl)ccc%10[nH]9)o8)nn7)cc6)cc5)nn4)o3)nc2c1
ASSIGNED_LABEL: A
--
SMILES_STR: Clc1ccc2[nH]c(-c3ccc(Cn4cc(COc5ccc(OCc6cn(Cc7ccc(-c8nc9cc(Cl)ccc9[nH]8)o7)nn6)cc5)nn4)o3)nc2c1
ASSIGNED_LABEL: B
--
SMILES_STR: Cl.Cl.c1cc2[nH]c(-c3ccc(Cn4cc(CCCc5cn(Cc6ccc(-c7nc8cc(C9=NCCN9)ccc8[nH]7)o6)nn5)nn4)o3)nc2cc1C1=NCCN1
ASSIGNED_LABEL: A
--
SMILES_STR: CC(C)NC(=N)c1ccc2[nH]c(-c3ccc(Cn4cc(COCc5cn(Cc6ccc(-c7nc8cc(C(=N)NC(C)C)ccc8[nH]7)o6)nn5)nn4)o3)nc2c1
ASSIGNED_LABEL: B
--
SMILES_STR: Cl.Cl.c1cc(OCc2cn(Cc3ccc(-c4nc5cc(C6=NCCN6)ccc5[nH]4)o3)nn2)ccc1OCc1cn(Cc2ccc(-c3nc4cc(C5=NCCN5)ccc4[nH]3)o2)nn1
ASSIGNED_LABEL: A
--
SMILES_STR: N=C(N)c1ccc2[nH]c(-c3ccc(Cn4cc(COc5ccc(-c6ccc(OCc7cn(Cc8ccc(-c9nc%10cc(C(=N)N)ccc%10[nH]9)o8)nn7)cc6)cc5)nn4)o3)nc2c1
ASSIGNED_LABEL: A
--
SMILES_STR: Fc1ccc2[nH]c(-c3ccc(Cn4cc(COc5ccc(OCc6cn(Cc7ccc(-c8nc9cc(F)ccc9[nH]8)o7)nn6)cc5)nn4)o3)nc2c1
ASSIGNED_LABEL: B
--
SMILES_STR: Clc1ccc2[nH]c(-c3ccc(Cn4cc(CCCc5cn(Cc6ccc(-c7nc8cc(Cl)ccc8[nH]7)o6)nn5)nn4)o3)nc2c1
ASSIGNED_LABEL: B
--
SMILES_STR: CC(C)NC(=N)c1ccc2[nH]c(-c3ccc(Cn4cc(COc5ccc(OCc6cn(Cc7ccc(-c8nc9cc(C(=N)NC(C)C)ccc9[nH]8)o7)nn6)cc5)nn4)o3)nc2c1.Cl.Cl
ASSIGNED_LABEL: B

Class (by measured Activity) for c1ccc2[nH]c(-c3ccc(Cn4cc(COc5ccc(OCc6cn(Cc7ccc(-c8nc9ccccc9[nH]8)o7)nn6)cc5)nn4)o3)nc2c1
C

Hello team, could you let me know which band the following molecule falls into: Fc1ccc2[nH]c(-c3ccc(Cn4cc(CCCc5cn(Cc6ccc(-c7nc8cc(F)ccc8[nH]7)o6)nn5)nn4)o3)nc2c1
C

Into which bin does this molecule go? c1ccc2[nH]c(-c3ccc(Cn4cc(CCCc5cn(Cc6ccc(-c7nc8ccccc8[nH]7)o6)nn5)nn4)o3)nc2c1
C
